# assay_explanation: Pharmacokinetic analyses in mice (PO suspension, IV, SC)
# Assay type: in vivo, mouse
# condition_notes: female, CD-1, mouse, in vivo, po, 10 mg/kg, PO (10 mg/kg susp.), 4 hrs, mean of 3 animals; read-out: MBX 4132 Concentrations in Mouse Plasma, Mean

[
  {
    "smiles_structure": "O=C(Nc1nnc(-c2ccc(F)cc2)o1)N1CCc2ccccc2C1",
    "concentration at 4 h": "13.6 µg/mL"
  }
]

---

# assay_explanation: Pharmacokinetic analyses in mice (PO suspension, IV, SC)
# Assay type: in vivo, mouse
# condition_notes: mouse, in vivo, po, 10 mg/kg, PO (10 mg/kg), 0.5 hrs, mean of 3 animals; read-out: MBX 4132 Concentrations in Mouse Plasma, Mean
# Protocol: Female CD-1 mice as above were fasted for 2 h prior, and 4 h after dosing. […] […], 3 mice from each group were euthanized by CO2 inhalation, blood was collected by cardiac puncture into K2EDTA collection tubes, and protein was precipitated and analysed by LC/MS-MS for plasma concentrations of MBX-4132. Data were analysed using WinNonLin. […] Data were analysed using WinNonLin.
measurement_name: concentration at 0.5 h

[
  {
    "smiles_structure": "O=C(Nc1nnc(-c2ccc(F)cc2)o1)N1CCc2ccccc2C1",
    "assay_value": "1360 ng/mL"
  }
]

---

# assay_explanation: Pharmacokinetic analyses in mice (PO suspension, IV, SC)
# Assay type: in vivo, mouse
# condition_notes: female, CD-1, mouse, in vivo, sc, 10 mg/kg, SC (10 mg/kg), 0.5 hrs, mean of 3 animals; read-out: MBX 4132 Concentrations in Mouse Plasma, Mean
# Procedure: Female CD-1 mice as above were fasted for 2 h prior, and 4 h after dosing. […] […], 3 mice from each group were euthanized by CO2 inhalation, blood was collected by cardiac puncture into K2EDTA collection tubes, and protein was precipitated and analysed by LC/MS-MS for plasma concentrations of MBX-4132. Data were analysed using WinNonLin. […] Data were analysed using WinNonLin.
measurement_name: concentration at 0.5 h (ng/mL)

[
  {
    "smiles_structure": "O=C(Nc1nnc(-c2ccc(F)cc2)o1)N1CCc2ccccc2C1",
    "assay_value": 3780
  }
]

---

# assay_explanation: Liver microsome stability, dog
# Format: in vitro ADME
# condition_notes: dog, liver microsomes; read-out: Microsomal Stability (t1/2; min) Dog

[
  {
    "smiles_structure": "O=C(Nc1nnc(-c2ccc(F)cc2)o1)N1CCc2ccccc2C1",
    "half-life": "> 2 h"
  }
]

---

# Test system: reactive oxygen species (ROS) generation
# assay_explanation: Multiplexed cytotoxicity assay (nuclei, ROS, TMRE)
# Assay type: cell-based, human
# condition_notes: human, primary hepatocytes, 1.00E-01 μM; 24 h
measurement_name: fold induction at 24 h, 0.1 μM

[
  {
    "smiles_structure": "O=C(Nc1nnc(-c2ccc(F)cc2)o1)N1CCc2ccccc2C1",
    "measurement_name": "fold induction at 24 h, 0.1 μM",
    "assay_value": 1.4
  }
]

---

# assay_explanation: Pharmacokinetic analyses in mice (PO suspension, IV, SC)
# Assay type: in vivo, mouse
# condition_notes: female, CD-1, mouse, in vivo, po, 10 mg/kg, PO (10 mg/kg susp.), 0.5 hrs, individual animals; read-out: MBX 4132 Concentrations in Mouse Plasma

[
  {
    "compound": "O=C(Nc1nnc(-c2ccc(F)cc2)o1)N1CCc2ccccc2C1 [MBX 4132]",
    "unit_of_measurement": "ng/mL",
    "concentration at 0.5 h": 13900
  }
]
